Known self-splicing fitness (ln) of a selection of sequences
assay: self-splicing fitness, log relative to wild type (ln ratio); higher = more splicing; Tetrahymena group I intron in knt gene, E. coli kanamycin selection, DiMSum; sequences stand for … in CUCUCU…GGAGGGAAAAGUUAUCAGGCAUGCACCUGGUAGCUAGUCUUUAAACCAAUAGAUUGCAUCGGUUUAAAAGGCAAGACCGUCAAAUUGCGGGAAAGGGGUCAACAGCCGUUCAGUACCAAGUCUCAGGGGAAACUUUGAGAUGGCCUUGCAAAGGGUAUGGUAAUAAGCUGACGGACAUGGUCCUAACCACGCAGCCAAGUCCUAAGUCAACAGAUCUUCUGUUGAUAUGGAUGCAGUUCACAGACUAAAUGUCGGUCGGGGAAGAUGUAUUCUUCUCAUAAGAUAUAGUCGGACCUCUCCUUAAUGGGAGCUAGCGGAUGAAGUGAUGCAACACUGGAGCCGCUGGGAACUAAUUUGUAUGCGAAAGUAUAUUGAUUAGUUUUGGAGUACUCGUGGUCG; conditions: 30 °C;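 note: selection with 25 µg/mL kanamycin versus none on LB agar overnight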
No unit in the answer, only the number.

Field request: self-splicing fitness (ln) | item: "GCGGAGCAAUAUUACGCAGU" -3.68

Field request: self-splicing fitness (ln) | item: "GGUGAGCAAUAUUACGUGCA" -0.986

Field request: self-splicing fitness (ln) | item: "GUAUAGCAAUAUUACGUGCA" -0.903

Field request: self-splicing fitness (ln) | item: "AAGCAGCAAUAUUACGGAUA" -2.22

Field request: self-splicing fitness (ln) | item: "GGGAAGCAAUAUUACGGCAC" 0.0244

Reference for the values: the supplement of paper PMC7877785
